Every entry's value here was drawn from ChEMBL document CHEMBL1131312.

# Tested on: Mus musculus
# TEST PROTOCOL: compound was tested in vivo for inhibition of P388 murine leukemia cells after iv / ip administration.
# Assay type: functional
READOUT KIND: ED50 (mg/kg)
Supply the numeric figure in mg/kg, leaving out any unit text.

Please report the recorded ED50 for COc1cc([C@@H]2c3cc4c(cc3[C@@H](OC3CC(N(C)C)C5OC(C)OCC5O3)[C@H]3COC(=O)[C@H]23)OCO4)cc(OC)c1O (stereo in doubt; 28) .
1.7

Field entry: COc1cc([C@@H]2c3cc4c(cc3[C@@H](OC3CC(N(C)C)C5OC(C)OCC5O3)[C@H]3COC(=O)[C@H]23)OCO4)cc(OC)c1O (stereo in doubt; 29)
5

// query: COc1cc([C@@H]2c3cc4c(cc3[C@@H](OC3CC(N)C5OC(C)OCC5O3)[C@H]3COC(=O)[C@H]23)OCO4)cc(OC)c1O (stereo in doubt; 17)
5

What do we get for COc1cc([C@@H]2c3cc4c(cc3[C@@H](OC3CC(N)C5OC(C)OCC5O3)[C@H]3COC(=O)[C@H]23)OCO4)cc(OC)c1O (stereo in doubt; 27) ?
1.7

====

solubility: recorded values
# TEST PROTOCOL: Water solubility of the compound
# Format: ADME
# TEST PARAMETERS: water; read-out: S
Give just the number in mg/mL; leave the unit off.

The examples below pair each entry with its known result.
COc1cc([C@@H]2c3cc4c(cc3C(OC3OC5COC(C)OC5C(O)C3N(C)C)C3COC(=O)[C@@H]32)OCO4)cc(OC)c1O (some centres not stated)
15
COc1cc([C@@H]2c3cc4c(cc3[C@@H](OC3CC(N)C(O)C(CN)O3)[C@H]3COC(=O)[C@H]23)OCO4)cc(OC)c1O (some centres not stated)
42
COc1cc([C@@H]2c3cc4c(cc3[C@@H](O[C@@H]3CC(N)C5OC(C)OCC5O3)[C@H]3COC(=O)[C@H]23)OCO4)cc(OC)c1O (some centres not stated)
10
COc1cc([C@@H]2c3cc4c(cc3[C@@H](OC3CC(N)C(O)C(C)O3)[C@H]3COC(=O)[C@H]23)OCO4)cc(OC)c1O (some centres not stated)
13
COc1cc([C@@H]2c3cc4c(cc3[C@@H](OC3CC(NCCN)C5OC(C)OCC5O3)[C@H]3COC(=O)[C@H]23)OCO4)cc(OC)c1O (some centres not stated)
40
COc1cc([C@@H]2c3cc4c(cc3[C@@H](OC3CC(N(C)C)C5OC(C)OCC5O3)[C@H]3COC(=O)[C@H]23)OCO4)cc(OC)c1O (stereo in doubt; 29)
26

Turning now to a further compound:
For COc1cc([C@@H]2c3cc4c(cc3[C@@H](OC3CC(N)C5OC(C)OCC5O3)[C@H]3COC(=O)[C@H]23)OCO4)cc(OC)c1O (stereo in doubt; 17) , what is its reported solubility?
11

====

# TARGET SYSTEM: DNA topoisomerase II (Homo sapiens, UniProt P11388+Q02880)
# TEST PROTOCOL: Concentration of compound at which inhibitory activity detected against DNA topoisomerase II
# Type: protein assay, Drosophila melanogaster
READOUT KIND: EC50

COc1cc([C@@H]2c3cc4c(cc3[C@@H](OC3CC(N)C(O)C(C)O3)[C@H]3COC(=O)[C@H]23)OCO4)cc(OC)c1O (stereo not given in full)
5.6 µM
COc1cc([C@@H]2c3cc4c(cc3[C@@H](OC3CC(NCC#N)C5OC(C)OCC5O3)[C@H]3COC(=O)[C@H]23)OCO4)cc(OC)c1O (stereo not given in full)
> 1 µM
COc1cc([C@@H]2c3cc4c(cc3[C@@H](OC3CC(N5CCOCC5)C5OC(C)OCC5O3)[C@H]3COC(=O)[C@H]23)OCO4)cc(OC)c1O (stereo not given in full)
> 1 µM
COc1cc([C@@H]2c3cc4c(cc3[C@@H](OC3CC(N)C(O)C(CN)O3)[C@H]3COC(=O)[C@H]23)OCO4)cc(OC)c1O (stereo not given in full)
> 100 µM
COc1cc([C@@H]2c3cc4c(cc3[C@@H](OC3CC(NCCN)C5OC(C)OCC5O3)[C@H]3COC(=O)[C@H]23)OCO4)cc(OC)c1O (stereo not given in full)
> 100 µM
COc1cc([C@@H]2c3cc4c(cc3[C@@H](O[C@@H]3CC(N)C5OC(C)OCC5O3)[C@H]3COC(=O)[C@H]23)OCO4)cc(OC)c1O (stereo not given in full)
> 100 µM
COc1cc([C@@H]2c3cc4c(cc3[C@@H](OC3CC(N(C)C)C5OC(C)OCC5O3)[C@H]3COC(=O)[C@H]23)OCO4)cc(OC)c1O (stereo in doubt; 29)
> 100 µM
COc1cc([C@@H]2c3cc4c(cc3[C@@H](OC3CC(N(C)C)C5OC(C)OCC5O3)[C@H]3COC(=O)[C@H]23)OCO4)cc(OC)c1O (stereo in doubt; 28)
> 100 µM

What EC50 value was documented for this compound, COc1cc([C@@H]2c3cc4c(cc3[C@@H](OC3CC(N)C5OC(C)OCC5O3)[C@H]3COC(=O)[C@H]23)OCO4)cc(OC)c1O (stereo in doubt; 17) ?
> 100 µM

What do you get for COc1cc([C@@H]2c3cc4c(cc3[C@@H](OC3CC(N)C5OC(C)OCC5O3)[C@H]3COC(=O)[C@H]23)OCO4)cc(OC)c1O (stereo in doubt; 27) ?
> 100 µM
